tested on: Human umbilical vein endothelial cells (HUVECs); assay: MTT assay of cell damage in hydrogen peroxide-treated HUVECs (cell regeneration effect); format: cell-based; conditions: HUVECs treated with antioxidant, then hydrogen peroxide
readoutType: cell regeneration effect

compound	testedSystem	readoutType	result
COC(=O)c1cc(O)c(O)c(O)c1 [A4, methyl gallate]	Human umbilical vein endothelial cells (HUVECs)	cell regeneration effect	high
COc1cc2ccc(=O)oc2c(O[C@@H]2O[C@H](CO)[C@@H](O)[C@H](O)[C@H]2O)c1O	Human umbilical vein endothelial cells (HUVECs)	cell regeneration effect	high
O=C(CC(O)(CC(=O)OCc1ccc(O[C@@H]2O[C@H](CO)[C@@H](O)[C@H](O)[C@H]2O)cc1)C(=O)O)OCc1ccc(O[C@@H]2O[C@H](CO)[C@@H](O)[C@H](O)[C@H]2O)cc1	Human umbilical vein endothelial cells (HUVECs)	cell regeneration effect	did not show
C[C@@H]1O[C@@H](O[C@@H]2[C@@H](O)[C@H](OCCc3ccc(O)c(O)c3)O[C@H](CO)[C@H]2OC(=O)/C=C/c2ccc(O)c(O)c2)[C@H](O)[C@H](O)[C@H]1O [A6, Acteoside]	Human umbilical vein endothelial cells (HUVECs)	cell regeneration effect	did not show

Origin of the recorded values: patent US11382935B2
